Just for reference, patent US9422267B2 is where these values come from.

# Test system: panel of 72 non-kinase targets (Table B14), incl. CYP450
# METHOD DESCRIPTION: Extended panel screen against non-kinase targets (LeadProfilingScreen and CYP450 assays)
# Assay type: binding
# CONDITIONS: 72 non-kinase targets, read-out: percent inhibition of all non-kinase targets

COMPOUND	MEASURED TARGET	inhibition at 1 µM
CC(C)c1cc(Nc2nc(N3CCCC3C(=O)Nc3ccc(F)nc3)nc3c2CCC3)n[nH]1 (single isomer, unassigned)	panel of 72 non-kinase targets (Table B14), incl. CYP450	< 30%

----------
# MEASURED TARGET: IR (Homo sapiens, UniProt P06213)
# Construct: purchased Millipore 14-803
# Sequence (P06213 28-1382): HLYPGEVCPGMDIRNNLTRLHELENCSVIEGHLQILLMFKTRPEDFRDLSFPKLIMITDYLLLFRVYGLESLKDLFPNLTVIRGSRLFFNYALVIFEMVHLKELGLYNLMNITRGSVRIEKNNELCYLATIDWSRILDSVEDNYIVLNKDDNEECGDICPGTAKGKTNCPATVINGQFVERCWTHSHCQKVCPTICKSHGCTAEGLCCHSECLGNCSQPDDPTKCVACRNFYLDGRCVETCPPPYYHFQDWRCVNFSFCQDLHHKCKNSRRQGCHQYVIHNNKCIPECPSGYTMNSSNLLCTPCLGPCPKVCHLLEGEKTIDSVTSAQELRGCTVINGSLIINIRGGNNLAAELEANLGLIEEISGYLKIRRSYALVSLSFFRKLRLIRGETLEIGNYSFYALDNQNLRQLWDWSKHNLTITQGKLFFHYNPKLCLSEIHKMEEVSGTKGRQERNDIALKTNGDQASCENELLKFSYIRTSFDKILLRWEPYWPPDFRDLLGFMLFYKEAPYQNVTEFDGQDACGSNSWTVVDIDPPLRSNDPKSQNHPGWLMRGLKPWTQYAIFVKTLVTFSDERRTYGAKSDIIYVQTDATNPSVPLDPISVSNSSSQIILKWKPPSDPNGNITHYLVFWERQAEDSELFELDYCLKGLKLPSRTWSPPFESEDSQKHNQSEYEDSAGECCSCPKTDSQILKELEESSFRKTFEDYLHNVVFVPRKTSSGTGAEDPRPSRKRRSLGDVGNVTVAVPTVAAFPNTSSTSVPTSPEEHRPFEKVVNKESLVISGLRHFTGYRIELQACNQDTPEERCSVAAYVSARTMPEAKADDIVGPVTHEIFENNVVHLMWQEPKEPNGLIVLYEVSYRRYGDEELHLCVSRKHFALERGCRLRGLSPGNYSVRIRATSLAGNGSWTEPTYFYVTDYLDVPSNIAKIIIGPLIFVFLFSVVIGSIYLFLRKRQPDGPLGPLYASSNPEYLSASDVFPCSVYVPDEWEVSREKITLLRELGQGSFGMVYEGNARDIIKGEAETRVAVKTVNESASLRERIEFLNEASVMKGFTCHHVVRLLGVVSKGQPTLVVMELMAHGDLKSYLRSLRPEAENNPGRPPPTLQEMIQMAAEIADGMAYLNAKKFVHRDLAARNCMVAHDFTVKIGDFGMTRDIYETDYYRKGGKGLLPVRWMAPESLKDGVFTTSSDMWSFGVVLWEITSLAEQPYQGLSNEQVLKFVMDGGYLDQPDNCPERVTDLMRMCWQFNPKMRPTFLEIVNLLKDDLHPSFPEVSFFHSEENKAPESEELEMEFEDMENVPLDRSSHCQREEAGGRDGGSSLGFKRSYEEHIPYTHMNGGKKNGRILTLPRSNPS
# METHOD DESCRIPTION: In vitro IR enzymatic assay (ADP-Glo kinase assay)
# Type: biochemical
# CONDITIONS: IR, ATP 50 μM, run N2; read-out: IC50 (M) N2

COMPOUND	IC50 [M]
O=C(Nc1ccc(F)nc1)C1CCCN1c1nc2c(c(Nc3cc(C4CC4)[nH]n3)n1)CCC2 (single isomer, unassigned)	4.07e-09
